Recorded tissue uptake dose at 10 min for the following molecules
Experiment: Biodistribution experiments in normal mice after i.v. injection
Assay type: in vivo
Conditions: male, ddY, mouse, in vivo, iv, total radioactivity, Biodistribution of radioactivity, Blood
Where a SMILES comes first, the peptide text is derived from it. [ ]: non-standard residue; d: D form. The star is where a group is joined. DOTA = O=C(O)CN1CCN(CC(=O)O)CCN(CC(=O)*)CCN(CC(=O)O)CC1

>  <Molecule>
O=C(O)CC[C@H](NC(=O)[C@H](CCC(=O)O)NC(=O)[C@H](CCC(=O)O)NC(=O)[C@H](CCC(=O)O)NC(=O)[C@H](CCC(=O)O)NC(=O)[C@H](CCC(=O)O)NC(=O)[C@H](CCC(=O)O)NC(=O)[C@H](CCC(=O)O)NC(=O)[C@H](CCC(=O)O)NC(=O)[C@H](CCC(=O)O)NC(=O)[C@H](CCC(=O)O)NC(=O)[C@H](CCC(=O)O)NC(=O)[C@H](CCC(=O)O)NC(=O)[C@H](CCC(=O)O)NC(=O)CN1CCN(CC(=O)O)CCN(CC(=O)O)CCN(CC(=O)O)CC1)C(=O)O [^67Ga-DOTA-(L-Glu)14, metal not drawn]

>  <tissue uptake dose at 10 min, %ID>
1.85

$$$$
>  <Molecule>
O=C(O)CC[C@@H](NC(=O)[C@@H](CCC(=O)O)NC(=O)[C@@H](CCC(=O)O)NC(=O)[C@@H](CCC(=O)O)NC(=O)[C@@H](CCC(=O)O)NC(=O)[C@@H](CCC(=O)O)NC(=O)[C@@H](CCC(=O)O)NC(=O)[C@@H](CCC(=O)O)NC(=O)[C@@H](CCC(=O)O)NC(=O)[C@@H](CCC(=O)O)NC(=O)[C@@H](CCC(=O)O)NC(=O)[C@@H](CCC(=O)O)NC(=O)[C@@H](CCC(=O)O)NC(=O)[C@@H](CCC(=O)O)NC(=O)CN1CCN(CC(=O)O)CCN(CC(=O)O)CCN(CC(=O)O)CC1)C(=O)O [^67Ga-DOTA-(D-Glu)14, metal not drawn]

>  <tissue uptake dose at 10 min, %ID>
2.09

$$$$
>  <Molecule>
O=C(O)C[C@@H](NC(=O)[C@@H](CC(=O)O)NC(=O)[C@@H](CC(=O)O)NC(=O)[C@@H](CC(=O)O)NC(=O)[C@@H](CC(=O)O)NC(=O)[C@@H](CC(=O)O)NC(=O)[C@@H](CC(=O)O)NC(=O)[C@@H](CC(=O)O)NC(=O)CN1CCN(CC(=O)O)CCN(CC(=O)O)CCN(CC(=O)O)CC1)C(=O)O [^67Ga-DOTA-(D-Asp)8, metal not drawn] ({DOTA}-[dD][dD][dD][dD][dD][dD][dD][dD]-OH)

>  <tissue uptake dose at 10 min, %ID>
1.94

$$$$

---

Assay: Biodistribution experiments in normal mice after i.v. injection
Type: in vivo
Details: male, ddY, mouse, in vivo, iv, total radioactivity, Biodistribution of radioactivity, Kidney
Where a SMILES comes first, the peptide text is derived from it. [ ]: non-standard residue; d: D form. The star is where a group is joined. DOTA = O=C(O)CN1CCN(CC(=O)O)CCN(CC(=O)*)CCN(CC(=O)O)CC1
Measure name: tissue uptake dose at 10 min (%ID)

>  <Compound>
O=C(O)C[C@@H](NC(=O)[C@@H](CC(=O)O)NC(=O)[C@@H](CC(=O)O)NC(=O)[C@@H](CC(=O)O)NC(=O)[C@@H](CC(=O)O)NC(=O)[C@@H](CC(=O)O)NC(=O)[C@@H](CC(=O)O)NC(=O)[C@@H](CC(=O)O)NC(=O)CN1CCN(CC(=O)O)CCN(CC(=O)O)CCN(CC(=O)O)CC1)C(=O)O [^67Ga-DOTA-(D-Asp)8, metal not drawn] ({DOTA}-[dD][dD][dD][dD][dD][dD][dD][dD]-OH)

>  <Units text>
%ID

>  <Data value>
12.8

$$$$
>  <Compound>
O=C(O)C[C@@H](NC(=O)[C@@H](CC(=O)O)NC(=O)[C@@H](CC(=O)O)NC(=O)[C@@H](CC(=O)O)NC(=O)[C@@H](CC(=O)O)NC(=O)CN1CCN(CC(=O)O)CCN(CC(=O)O)CCN(CC(=O)O)CC1)C(=O)O [^67Ga-DOTA-(D-Asp)5, metal not drawn] ({DOTA}-[dD][dD][dD][dD][dD]-OH)

>  <Units text>
%ID

>  <Data value>
12

$$$$
>  <Compound>
O=C(O)C[C@@H](NC(=O)[C@@H](CC(=O)O)NC(=O)CN1CCN(CC(=O)O)CCN(CC(=O)O)CCN(CC(=O)O)CC1)C(=O)O [^67Ga-DOTA-(D-Asp)2, metal not drawn] ({DOTA}-[dD]-[dD]-OH)

>  <Units text>
%ID

>  <Data value>
7.61

$$$$
>  <Compound>
O=C(O)CC[C@@H](NC(=O)[C@@H](CCC(=O)O)NC(=O)[C@@H](CCC(=O)O)NC(=O)[C@@H](CCC(=O)O)NC(=O)[C@@H](CCC(=O)O)NC(=O)[C@@H](CCC(=O)O)NC(=O)[C@@H](CCC(=O)O)NC(=O)[C@@H](CCC(=O)O)NC(=O)[C@@H](CCC(=O)O)NC(=O)[C@@H](CCC(=O)O)NC(=O)[C@@H](CCC(=O)O)NC(=O)[C@@H](CCC(=O)O)NC(=O)[C@@H](CCC(=O)O)NC(=O)[C@@H](CCC(=O)O)NC(=O)CN1CCN(CC(=O)O)CCN(CC(=O)O)CCN(CC(=O)O)CC1)C(=O)O [^67Ga-DOTA-(D-Glu)14, metal not drawn]

>  <Units text>
%ID

>  <Data value>
13.4

$$$$

---

Recorded tissue uptake dose at 1 h for the following molecules
Assay: Biodistribution experiments in normal mice after i.v. injection
Type: in vivo
Conditions: male, ddY, mouse, in vivo, iv, total radioactivity, Biodistribution of radioactivity, Spleen
Where a SMILES comes first, the peptide text is derived from it. [ ]: non-standard residue; d: D form. The star is where a group is joined. DOTA = O=C(O)CN1CCN(CC(=O)O)CCN(CC(=O)*)CCN(CC(=O)O)CC1
Measure name: tissue uptake dose at 1 h (%ID)

>  <Molecule>
O=C(O)C[C@@H](NC(=O)[C@@H](CC(=O)O)NC(=O)[C@@H](CC(=O)O)NC(=O)[C@@H](CC(=O)O)NC(=O)[C@@H](CC(=O)O)NC(=O)CN1CCN(CC(=O)O)CCN(CC(=O)O)CCN(CC(=O)O)CC1)C(=O)O [^67Ga-DOTA-(D-Asp)5, metal not drawn] ({DOTA}-[dD][dD][dD][dD][dD]-OH)

>  <Data value>
0.16

$$$$
>  <Molecule>
O=C(O)C[C@@H](NC(=O)[C@@H](CC(=O)O)NC(=O)[C@@H](CC(=O)O)NC(=O)[C@@H](CC(=O)O)NC(=O)[C@@H](CC(=O)O)NC(=O)[C@@H](CC(=O)O)NC(=O)[C@@H](CC(=O)O)NC(=O)[C@@H](CC(=O)O)NC(=O)CN1CCN(CC(=O)O)CCN(CC(=O)O)CCN(CC(=O)O)CC1)C(=O)O [^67Ga-DOTA-(D-Asp)8, metal not drawn] ({DOTA}-[dD][dD][dD][dD][dD][dD][dD][dD]-OH)

>  <Data value>
0.16

$$$$

---

Test: Biodistribution experiments in normal mice after i.v. injection
Type: in vivo
Conditions: male, ddY, mouse, in vivo, iv, total radioactivity, Biodistribution of radioactivity, Small-intestine
Where a SMILES comes first, the peptide text is derived from it. [ ]: non-standard residue; d: D form. The star is where a group is joined. DOTA = O=C(O)CN1CCN(CC(=O)O)CCN(CC(=O)*)CCN(CC(=O)O)CC1

>  <Compound>
O=C(O)C[C@@H](NC(=O)[C@@H](CC(=O)O)NC(=O)[C@@H](CC(=O)O)NC(=O)[C@@H](CC(=O)O)NC(=O)[C@@H](CC(=O)O)NC(=O)CN1CCN(CC(=O)O)CCN(CC(=O)O)CCN(CC(=O)O)CC1)C(=O)O [^67Ga-DOTA-(D-Asp)5, metal not drawn] ({DOTA}-[dD][dD][dD][dD][dD]-OH)

>  <Units text>
%ID

>  <tissue uptake dose at 10 min>
0.55

$$$$
>  <Compound>
O=C(O)CC[C@@H](NC(=O)[C@@H](CCC(=O)O)NC(=O)[C@@H](CCC(=O)O)NC(=O)[C@@H](CCC(=O)O)NC(=O)[C@@H](CCC(=O)O)NC(=O)[C@@H](CCC(=O)O)NC(=O)[C@@H](CCC(=O)O)NC(=O)[C@@H](CCC(=O)O)NC(=O)[C@@H](CCC(=O)O)NC(=O)[C@@H](CCC(=O)O)NC(=O)[C@@H](CCC(=O)O)NC(=O)[C@@H](CCC(=O)O)NC(=O)[C@@H](CCC(=O)O)NC(=O)[C@@H](CCC(=O)O)NC(=O)CN1CCN(CC(=O)O)CCN(CC(=O)O)CCN(CC(=O)O)CC1)C(=O)O [^67Ga-DOTA-(D-Glu)14, metal not drawn]

>  <Units text>
%ID

>  <tissue uptake dose at 10 min>
0.37

$$$$
>  <Compound>
O=C(O)C[C@@H](NC(=O)[C@@H](CC(=O)O)NC(=O)[C@@H](CC(=O)O)NC(=O)[C@@H](CC(=O)O)NC(=O)[C@@H](CC(=O)O)NC(=O)[C@@H](CC(=O)O)NC(=O)[C@@H](CC(=O)O)NC(=O)[C@@H](CC(=O)O)NC(=O)CN1CCN(CC(=O)O)CCN(CC(=O)O)CCN(CC(=O)O)CC1)C(=O)O [^67Ga-DOTA-(D-Asp)8, metal not drawn] ({DOTA}-[dD][dD][dD][dD][dD][dD][dD][dD]-OH)

>  <Units text>
%ID

>  <tissue uptake dose at 10 min>
0.39

$$$$
>  <Compound>
O=C(O)C[C@@H](NC(=O)[C@@H](CC(=O)O)NC(=O)CN1CCN(CC(=O)O)CCN(CC(=O)O)CCN(CC(=O)O)CC1)C(=O)O [^67Ga-DOTA-(D-Asp)2, metal not drawn] ({DOTA}-[dD]-[dD]-OH)

>  <Units text>
%ID

>  <tissue uptake dose at 10 min>
0.5

$$$$
>  <Compound>
O=C(O)CC[C@H](NC(=O)[C@H](CCC(=O)O)NC(=O)[C@H](CCC(=O)O)NC(=O)[C@H](CCC(=O)O)NC(=O)[C@H](CCC(=O)O)NC(=O)[C@H](CCC(=O)O)NC(=O)[C@H](CCC(=O)O)NC(=O)[C@H](CCC(=O)O)NC(=O)[C@H](CCC(=O)O)NC(=O)[C@H](CCC(=O)O)NC(=O)[C@H](CCC(=O)O)NC(=O)[C@H](CCC(=O)O)NC(=O)[C@H](CCC(=O)O)NC(=O)[C@H](CCC(=O)O)NC(=O)CN1CCN(CC(=O)O)CCN(CC(=O)O)CCN(CC(=O)O)CC1)C(=O)O [^67Ga-DOTA-(L-Glu)14, metal not drawn]

>  <Units text>
%ID

>  <tissue uptake dose at 10 min>
0.5

$$$$
